Below, each entry is listed alongside its reported relative viability.
- System: G401
- ASSAY_EXPLANATION: relative viability vs DMSO control (72 h) (fraction); higher = more viable cells
- CONDITION_DETAILS: 0.01372 µM

COMPOUND: Cc1cc(F)c(C(=O)Nc2cccc(-c3nncn3C(C)C)n2)cc1-n1cnc(C2CC2)c1 [Selonsertib]
relative viability: 0.995
//
COMPOUND: O=C1CCc2c(Oc3ccc4c(c3)[C@@H]3[C@H](O4)[C@H]3c3nc4cc(C(F)(F)F)ccc4[nH]3)ccnc2N1 [Lifirafenib]
relative viability: 1.02
//
COMPOUND: C[C@@H]1CN(C(=O)c2ccc(NC(=O)c3cc(O[C@H](C)c4c(Cl)ccc(F)c4Cl)c(N)nn3)cc2)C[C@H](C)N1 [Ensartinib]
relative viability: 1.01
//
COMPOUND: Cc1cc2c(F)c(Oc3ncnn4cc(OC[C@@H](C)OC(=O)[C@H](C)N)c(C)c34)ccc2[nH]1 [Brivanib_alaninate]
relative viability: 0.974

* * *

- System: HS729
- ASSAY_EXPLANATION: relative viability vs DMSO control (72 h) (fraction); higher = more viable cells
- CONDITION_DETAILS: 0.04115 µM

MOLECULE: Cc1cc2c(F)c(Oc3ncnn4cc(OC[C@@H](C)OC(=O)[C@H](C)N)c(C)c34)ccc2[nH]1 [Brivanib_alaninate]
relative viability: 0.897
--
MOLECULE: Cn1cnc2c(F)c(Nc3ccc(Br)cc3Cl)c(C(=O)NOCCO)cc21
relative viability: 0.902
--
MOLECULE: COc1cc(Nc2ncc3c(n2)-c2ccc(Cl)cc2C(c2c(F)cccc2OC)=NC3)ccc1C(=O)O
relative viability: 0.879

* * *

- Tested on: HS729
- ASSAY_EXPLANATION: relative viability vs DMSO control (72 h) (fraction); higher = more viable cells
- CONDITION_DETAILS: 3.333 µM
ENDPOINT: relative viability

ITEM_SMILES: CC(=O)c1c(C)c2cnc(Nc3ccc(N4CCNCC4)cn3)nc2n(C2CCCC2)c1=O
STUDY_TARGET: HS729
ENDPOINT: relative viability
RECORDED_NUMBER: 0.849
//
ITEM_SMILES: C#Cc1cccc(Nc2ncnc3cc4c(cc23)OCCOCCOCCO4)c1
STUDY_TARGET: HS729
ENDPOINT: relative viability
RECORDED_NUMBER: 0.892
//
ITEM_SMILES: CCOc1cc2ncc(C#N)c(Nc3ccc(OCc4ccccn4)c(Cl)c3)c2cc1NC(=O)/C=C/CN(C)C
STUDY_TARGET: HS729
ENDPOINT: relative viability
RECORDED_NUMBER: 0.645

* * *

- System: SW982
- ASSAY_EXPLANATION: relative viability vs DMSO control (72 h) (fraction); higher = more viable cells
- CONDITION_DETAILS: 0.01372 µM
Below, each entry is listed alongside its reported relative viability.
ENDPOINT: relative viability

ITEM_SMILES: CNC(=O)c1cccc2cc(Oc3ccnc4cc(OCC5(N)CC5)c(OC)cc34)ccc12
STUDY_TARGET: SW982
RECORDED_NUMBER: 1.03
//
ITEM_SMILES: COc1cc2ncnc(Nc3ccc(F)c(Cl)c3)c2cc1OCCCN1CCOCC1
STUDY_TARGET: SW982
RECORDED_NUMBER: 1
//
ITEM_SMILES: CNC(=O)c1c(C)oc2cc(Oc3ncnc4cc(OC)c(OC)cc34)ccc12
STUDY_TARGET: SW982
RECORDED_NUMBER: 1.03
//
ITEM_SMILES: Cn1cnc2c(F)c(Nc3ccc(Br)cc3Cl)c(C(=O)NOCCO)cc21
STUDY_TARGET: SW982
RECORDED_NUMBER: 0.99
